Entries annotated with measured Binding results (total of four assays) (of 3 concentrations positive, in 1 assay)
Target: HLA B*07 (human)
Experiment: T2B7 HLA stabilisation assay, flow cytometry, 10/20/200 ug/ml, four assays
Respond with the number and no other words.

As a guide, the following entries are already answered.
GPGHEEPQLV [WNVB7 0011]: 2
RPQRHDEKTL [WNVB7 0019]: 2
PEDIDCWCTK [WNVB7 3399]: 1
PFPESNSPIS [WNVB7 3411]: 1
IPAGFEPEML [WNVB7 0008]: 1

Switching to the query record.
# input Recorded Binding results (total of four assays) (of 3 concentrations positive, in 1 assay) for RPRWIDARVY [WNVB7 0017] , please?
# output 2
